# pKd annotations
target: Recombinant GPVI-Fc (extracellular domain of human GPVI fused to human IgG1 Fc domain) (Homo sapiens, UniProt Q9HCN6); assay: SPR
Sequence (Q9HCN6 21-267): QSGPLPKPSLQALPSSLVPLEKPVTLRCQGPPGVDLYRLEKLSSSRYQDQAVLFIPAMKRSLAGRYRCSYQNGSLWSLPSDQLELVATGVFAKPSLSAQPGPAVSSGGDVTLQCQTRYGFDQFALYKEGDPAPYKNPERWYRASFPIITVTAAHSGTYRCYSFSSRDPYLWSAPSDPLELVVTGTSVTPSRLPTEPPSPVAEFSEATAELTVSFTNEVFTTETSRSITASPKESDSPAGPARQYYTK
Give only the number. pKd is defined as minus log10 of concentration in molar units.

Given the binder Fab 9O12, Fab fragment of the mouse monoclonal IgG1,k 9O12 (Fab, V domains shown) VH: QVQLQESGAELVKPGASVKMSCKASGYTFTSYNMHWVKQTPGQGLEWIGGIYPGNGDTSFNQKFKGKATLTADKSSRTAYMQLSSLTSEDSAVYYCARGTVVGDWYFDVWGAGTTLTVSS VL: DVLMTQTPLSLPVSLGDQASISCRSSQSLENSNGNTYLNWYLQKPGQSPQLLIYRVSNRFSGVLDRFSGSGSGTDFTLKISRVEAEDLGVYFCLQLTHVPWTFGGGTKLEIK , write its reported pKd.
7.77

Given the binder ACT017, humanized anti-GPVI Fab (VL8b + VH3) (Fab, V domains shown) VH: QVQLVQSGAEVKKPGASVKVSCKASGYTFTSYNMHWVRQAPGQGLEWMGGIYPGNGDTSYNQKFQGRVTMTRDTSTSTVYMELSSLRSEDTAVYYCARGTVVGDWYFDVWGQGTLVTVSS VL: DIQMTQSPSSLSASVGDRVTITCRSSQSLENSNGNTYLNWYQQKPGKAPKLLIYRVSNRFSGVPSRFSGSGSGTDFTFTISSLQPEDIATYYCLQLTHVPWTFGQGTKVEIT , write its reported pKd.
8.39
